This collection of values is drawn from patent US20180265804A1.

test: Solubility in water; format: physicochemical; settings: water; at 25° C.
Task for the reader: assign each of the following molecules its reported solubility.

solubility for Cc1cc(S(=O)(=O)[O-])c(C(C)C)cc1O.[K+] [IB546, Carvacrol Sulfonate Potassium Salt] is ~250 mg/mL

solubility for Cc1cc(O)c(C(C)C)cc1S(=O)(=O)[O-].[K+] [IB575, Thymol Sulfonate Potassium Salt] is ~190 mg/mL

----------
tested on: Escherichia coli; assay type: cell-based
readoutKind: MIC (%)
Provide only the numeric value, understood in %.

MIC for Cc1cc(S(=O)(=O)[O-])c(C(C)C)cc1O.[K+] [IB546, Carvacrol Sulfonate Potassium Salt] is 5

MIC for Cc1cc(O)c(C(C)C)cc1S(=O)(=O)O [IB574, Thymol Sulfonic Acid] is 0.75
